molecular target: atto-633-labeled tau monomers (UniProt P10636 1-441, atto-633 label, site not stated); assay: MST
Sequence (P10636 other isoform, or with tags, fused parts or gaps): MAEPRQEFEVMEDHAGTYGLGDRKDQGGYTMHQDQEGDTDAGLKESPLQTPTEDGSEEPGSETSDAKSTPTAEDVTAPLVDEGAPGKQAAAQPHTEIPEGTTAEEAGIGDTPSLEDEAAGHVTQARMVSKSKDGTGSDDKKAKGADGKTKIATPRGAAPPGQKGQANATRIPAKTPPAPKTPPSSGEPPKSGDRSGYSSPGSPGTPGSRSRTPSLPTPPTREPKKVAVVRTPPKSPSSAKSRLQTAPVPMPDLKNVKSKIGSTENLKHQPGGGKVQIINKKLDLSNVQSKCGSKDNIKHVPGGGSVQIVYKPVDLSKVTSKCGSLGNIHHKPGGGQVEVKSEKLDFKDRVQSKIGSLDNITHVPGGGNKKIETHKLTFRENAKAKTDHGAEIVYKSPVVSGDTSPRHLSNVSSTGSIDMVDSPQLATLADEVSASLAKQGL
No end group written: not given here. pomalidomide = small molecule targeting Cereblon, fused after the C-terminal end
measurement_kind: Kd

INSERT INTO assay_data (binder, measurement) VALUES
  ('WQIVYKGSVWMINK-pomalidomide (also: pomalidomide link chemistry not described) [HET-pomalidomide]', '~10.9 µM');
